These entries and their values trace back to ChEMBL document CHEMBL3808296.

Listed here: items and their measured EC50.
System: Vesicular stomatitis virus
Test Summary: Antiviral activity against Vesicular stomatitis virus Indiana infected in Vero 76 cells after 2 days by crystal violet staining based plaque reduction assay
Type: functional, organism-based
Recorded Conditions: Vero 76, 48 h

COc1ccc(-c2nc3cc4cccnc4c(Cl)c3[nH]2)c(OC)c1 :: > 100 µM
FC(F)(F)c1ccc(-c2nc3cc4cccnc4cc3[nH]2)cc1 :: > 100 µM
FC(F)(F)c1ccc(-c2nc3cc4cccnc4c(Cl)c3[nH]2)cc1 :: > 100 µM
O=[N+]([O-])c1ccc(-c2nc3cc4cccnc4c(Cl)c3n2CC2CCCCC2)cc1 :: > 20 µM
CC(=O)c1ccc(-c2nc3cc4cccnc4c(Cl)c3[nH]2)cc1 :: > 100 µM

Reported EC50, compound N#Cc1ccc(-c2nc3cc4cccnc4cc3[nH]2)cc1 : ____
> 100 µM

###

Test Summary: Cytotoxicity against mock-infected BHK21 cells assessed as reduction in cell viability after 72 hrs by MTT assay
Assay type: cell-based, Mesocricetus auratus, BHK-21
Recorded Conditions: hamster
Listed here: items and their measured CC50 at 72 h.

Reported CC50 at 72 h, compound NS(=O)(=O)c1ccc(-c2nc3cc4cccnc4c(Cl)c3[nH]2)cc1 : ____
> 100 µM

###

Test Summary: Inhibition of HCV RNA-dependent RNA polymerase
Design: species or system Hepacivirus hominis
Metric Name: pIC50
Scale: pIC50 equals -log10([C]), with [C] in mol/L.

Reported pIC50, compound O=[N+]([O-])c1ccc(-c2nc3cc4cccnc4c(Cl)c3[nH]2)cc1 : ____
5.10

###

Test Summary: Selectivity index, ratio of CC50 for MDBK cells to EC50 for […] NADL infected in MDBK cells
Metric Name: Ratio CC50/EC50

For orientation, consider the following solved cases.
FC(F)(F)c1ccc(-c2nc3cc4cccnc4cc3[nH]2)cc1 :: >14.2
Clc1c2ncccc2cc2nc(-c3ccoc3)[nH]c12 :: >50
CSc1ccc(-c2nc3cc4cccnc4c(Cl)c3[nH]2)cc1 :: >16.4
FC(F)(F)c1ccc(-c2nc3cc4cccnc4c(Cl)c3[nH]2)cc1 :: >50
CC(=O)c1ccc(-c2nc3cc4cccnc4c(Cl)c3[nH]2)cc1 :: >17.2
N#Cc1ccc(-c2nc3cc4cccnc4c(Cl)c3[nH]2)cc1 :: >333.3
O=[N+]([O-])c1ccc(-c2nc3cc4cccnc4c(Cl)c3n2CC2CCCCC2)cc1 :: >6.6
COc1ccc(-c2nc3cc4cccnc4c(Cl)c3[nH]2)c(OC)c1 :: >15.9

Here's the next entry for you.
Reported Ratio CC50/EC50, molecule C[C@@]1(O)[C@H](O)[C@@H](CO)O[C@H]1n1cnc2c(=O)[nH]c(N)nc21 : ____
>9.1

###

Test system: Poliovirus 1
Test Summary: Antiviral activity against Human poliovirus 1 strain Sabin infected in Vero 76 cells after 2 days by crystal violet staining based plaque reduction assay
Assay type: functional, organism-based
Recorded Conditions: Enterovirus C, Vero 76, 48 h
Metric Name: EC50

For orientation, consider the following solved cases.
O=[N+]([O-])c1ccc(-c2nc3cc4cccnc4c(Cl)c3n2CC2CCCCC2)cc1 :: > 20 µM
Fc1ccc(-c2nc3cc4cccnc4cc3[nH]2)c(F)c1 :: > 100 µM
CC(=O)c1ccc(-c2nc3cc4cccnc4c(Cl)c3[nH]2)cc1 :: > 100 µM
FC(F)(F)c1ccc(-c2nc3cc4cccnc4c(Cl)c3[nH]2)cc1 :: > 100 µM
CSc1ccc(-c2nc3cc4cccnc4c(Cl)c3[nH]2)cc1 :: > 100 µM

Reported EC50, compound N#Cc1ccc(-c2nc3cc4cccnc4cc3[nH]2)cc1 : ____
> 30 µM

###

Listed here: items and their measured CC50 at 72 h.
Test Summary: Cytotoxicity against mock-infected BHK21 cells assessed as reduction in cell viability after 72 hrs by MTT assay
Type: cell-based, Mesocricetus auratus, BHK-21
Recorded Conditions: hamster

For orientation, consider the following solved cases.
FC(F)(F)c1ccc(-c2nc3cc4cccnc4cc3[nH]2)cc1 :: > 100 µM
N#Cc1ccc(-c2nc3cc4cccnc4cc3[nH]2)cc1 :: 21 µM
COc1ccc(-c2nc3cc4cccnc4c(Cl)c3[nH]2)c(OC)c1 :: > 100 µM
C[C@@]1(O)[C@H](O)[C@@H](CO)O[C@H]1n1ccc(N)nc1=O :: > 100 µM
CSc1ccc(-c2nc3cc4cccnc4c(Cl)c3[nH]2)cc1 :: > 100 µM

Reported CC50 at 72 h, compound CC(=O)c1ccc(-c2nc3cc4cccnc4c(Cl)c3[nH]2)cc1 : ____
> 100 µM

Reported CC50 at 72 h, compound Fc1ccc(-c2nc3cc4cccnc4cc3[nH]2)c(F)c1 : ____
> 100 µM

Reported CC50 at 72 h, compound O=[N+]([O-])c1ccc(-c2nc3cc4cccnc4c(Cl)c3n2CC2CCCCC2)cc1 : ____
16 µM

Reported CC50 at 72 h, compound FC(F)(F)c1ccc(-c2nc3cc4cccnc4c(Cl)c3[nH]2)cc1 : ____
> 100 µM

Reported CC50 at 72 h, compound C[C@@]1(O)[C@H](O)[C@@H](CO)O[C@H]1n1cnc2c(=O)[nH]c(N)nc21 : ____
> 10 µM

Reported CC50 at 72 h, compound COc1ccc(-c2nc3cc4cccnc4cc3[nH]2)c(OC)c1 : ____
45 µM

###

Test Summary: Selectivity index, ratio of CC50 for MDBK cells to EC50 for […] NADL infected in MDBK cells
Listed here: items and their measured Ratio CC50/EC50.
Quick one: just the number, no unit, thanks!

Reported Ratio CC50/EC50, molecule NC(=O)c1ncn([C@@H]2O[C@H](CO)[C@@H](O)[C@H]2O)n1 : ____
3.8

Reported Ratio CC50/EC50, molecule COc1ccc(-c2nc3cc4cccnc4c(Cl)c3n2CC2CCCCC2)cc1 : ____
4

###

Test Summary: Selectivity index, ratio of CC50 for MDBK cells to EC50 for […] NADL infected in MDBK cells
Metric Name: Ratio CC50/EC50

For orientation, consider the following solved cases.
Fc1ccc(-c2nc3cc4cccnc4cc3[nH]2)c(F)c1 :: >16.7
COc1ccc(-c2nc3cc4cccnc4cc3[nH]2)c(OC)c1 :: >29.4

Reported Ratio CC50/EC50, compound N#Cc1ccc(-c2nc3cc4cccnc4cc3[nH]2)cc1 : ____
>25
